test system: Plasmodium berghei; experiment: Screen against P. berghei liver stage (PbLuc), transformed with Luciferase, at 10uM; format: functional, HepG2; details: tested at 10 uM
The whole screen tested about 69,000 compounds, of which about 8,600 (12%) showed an effect of 50% or more. The entries come from a sample that favours strong results as a whole.
Property measured: INHIBITION (%)
Output spec: scalar in %, unitless text.

These recorded examples may help you get a feel for the data.
| Molecule | Measurement units | INHIBITION |
| --- | --- | --- |
| O=c1ccc2c([nH]1)CCC(NS(=O)(=O)C1CC1)C2 (centres undefined) | % | 32.5 |
| CN(C)c1ccccc1C(=O)N1CCOC2(CNCCOC2)C1 (centres undefined) | % | 8.53 |
| Cc1c(Br)cnn1CCC(=O)N(C)Cc1c(Cl)cnn1C | % | 32.2 |
| CSc1nsc(SCC(=O)c2cc3c(cc2Cl)NC(=O)C3)n1 | % | 18.4 |
| c1ccc(CCN2CCC(OCC3CCCCO3)CC2)nc1 (centres undefined) | % | 7.24 |

Here's the next entry for you.
Note to self: INHIBITION recorded for `COCCNc1nnc(-c2cnc(C)cn2)s1` was -54.1

###

tested on: Plasmodium berghei; assay: Screen against P. berghei liver stage (PbLuc), transformed with Luciferase, at 10uM; format: functional, HepG2; conditions: tested at 10 uM
Hit rate of the full screen: of about 69,000 compounds, about 8,600 (12%) showed an effect of 50% or more. The sample holds strong results, similar compounds and a random draw of the others, so the mix is not that of the screen.
Record TRUE whenever INHIBITION is at 10% or higher; record FALSE when lower.

Answered cases to consult:
| Molecule | Label value |
| --- | --- |
| Cc1cccc(CN2C(=O)CO[C@@H]3CN(Cc4cnn(C)c4)C[C@H]32)c1 | TRUE |
| CC(Cn1cccn1)NC(=O)Nc1ccccn1 (stereo unspecified) | FALSE |

q: Check the entry `CS(=O)(=O)CCn1ccc(NC(=O)Cc2ccccc2Cl)n1` : does INHIBITION equal or exceed 10%?
a: TRUE

q: Check the entry `Cc1c(C(=O)N2CCNC(=O)C2)sc2nc[nH]c(=O)c12` : does INHIBITION equal or exceed 10%?
a: TRUE

q: Check the entry Cc1cc(Oc2ccccc2F)nc(C2CCCCN2)n1 (stereo unspecified) : does INHIBITION equal or exceed 10%?
a: TRUE

q: Check the entry CCCc1ccc(OC23CCCN(CC2)C3)c(OC)c1 (stereo unspecified) : does INHIBITION equal or exceed 10%?
a: TRUE

###

tested on: Plasmodium berghei; assay: Screen against P. berghei liver stage (PbLuc), transformed with Luciferase, at 10uM; assay type: functional, HepG2; details: tested at 10 uM
The campaign covered roughly 69,000 compounds. About 8,600 (12%) showed an effect of 50% or more. Shown is part of a subset that was picked to be rich in strong results.
Output: class label from INHIBITION. Mapping: bottom range = under 30%, center range = from 30% up to 40%, top range = 40% and over

| Molecule | Label value |
| --- | --- |
| Fc1ccc(CN2CCO[C@H]3[C@H](OCc4ccncc4)CC[C@@H]32)cc1 | top range |

q: Category of CCOCC(=O)N1CCC2(CC1)CC(c1ccccc1)CO2 (configuration not stated) :
a: center range

q: Category of O=C(Cc1ccncc1)N1CCC2(CC1)CC(c1ccccc1)CO2 (configuration not stated) :
a: top range

q: Category of Cn1cc(C2COC3(CCN(C(=O)Cc4ccccc4)CC3)C2)cn1 (configuration not stated) :
a: top range

q: Category of `O=C(NCCNc1ncccn1)C1CCCC1` :
a: bottom range

q: Category of CCn1cnnc1CNC(=O)NC(c1cccs1)C1CCCC1 (configuration not stated) :
a: bottom range

q: Category of CC1COC2(CCN(C(=O)Cc3ccncc3)CC2)C1 (configuration not stated) :
a: top range

q: Category of O=C(Cc1ccccc1)N1CCC2(CC1)CC(Nc1cnccn1)CO2 (configuration not stated) :
a: center range

q: Category of CCS(=O)(=O)CC(=O)NC(c1ccccc1)C1CCCCC1 (configuration not stated) :
a: bottom range

q: Category of `CO[C@@H]1CC[C@H]2[C@H]1OCCN2Cc1ccc(F)cc1` :
a: bottom range

q: Category of `COC[C@H]1CNC(=O)[C@@H]2CCN(Cc3ccc(F)cc3)CC[C@H]12` :
a: center range

q: Category of `Cc1ccc(CN2CCO[C@H]3[C@@H](OCc4cccnc4)CC[C@@H]32)o1` :
a: bottom range

q: Category of `Cn1c(=O)c2cc(C(=O)NCCOc3ccccc3)ccc2n(C)c1=O` :
a: center range

q: Category of `Cc1cccc(CO[C@@H]2CC[C@H]3[C@H]2OCCN3Cc2ccoc2)n1` :
a: top range

q: Category of COCCC1COC2(CCN(C(=O)Cc3ccccc3)CC2)C1 (configuration not stated) :
a: bottom range

q: Category of `Cc1ccc(CN2CCO[C@@H]3[C@@H](OCc4cccnc4)CC[C@@H]32)o1` :
a: bottom range

q: Category of `Cc1cccc(CO[C@@H]2CC[C@H]3[C@H]2OCCN3Cc2ccsc2)n1` :
a: bottom range

q: Category of `COc1ccc(CN2CCO[C@H]3[C@H](OCc4ccncc4)CC[C@@H]32)cc1` :
a: top range

q: Category of `COCc1ncn2c1CN(C(=O)c1ccc3ccccc3n1)CC2` :
a: bottom range

q: Category of Cc1noc(C)c1CNc1cccc(C(=O)N2CCCC(O)C2)c1 (configuration not stated) :
a: bottom range

q: Category of `Cc1ccc(CN2CCO[C@H]3[C@H](OCc4cccnc4)CC[C@@H]32)o1` :
a: top range

###

tested on: Plasmodium berghei; experiment: Screen against P. berghei liver stage (PbLuc), transformed with Luciferase, at 10uM; type: functional, HepG2; settings: tested at 10 uM
Hit rate of the full screen: of about 69,000 compounds, about 8,600 (12%) showed an effect of 50% or more. Only a selection was taken, and strong results are over-represented in it overall.
Record t whenever INHIBITION is at 30% or higher; record f when lower.

Answered cases to consult:
| Compound | Label value |
| --- | --- |
| O=C(c1ccccc1)N1CCOC2CNCC[C@H]21 (stereo partly specified) | f |
| COCCN1CCC2(CC1)CC(NC(=O)C(C)C)c1ccccc1O2 (stereo unspecified) | t |
| CCN1CCC2(CC1)CC(NC(=O)c1c[nH]cn1)c1ccccc1O2 (stereo unspecified) | t |
| COCC(=O)NC1CC2(CCN(CCF)CC2)Oc2ccccc21 (stereo unspecified) | f |
| N#Cc1cccc(CN2CCO[C@@H]3CNC[C@@H]32)c1 | f |

Could you now look at the following compound, please?
q: Check the entry COCCN1CCC2(CC1)CC(NC(=O)CN(C)C)c1ccccc1O2 (stereo unspecified) : does INHIBITION equal or exceed 30%?
a: t

###

test system: Plasmodium berghei; test: Screen against P. berghei liver stage (PbLuc), transformed with Luciferase, at 10uM; format: functional, HepG2; conditions: tested at 10 uM
Out of some 69,000 compounds screened, about 8,600 (12%) showed an effect of 50% or more. The list comes from a sample in which strong results are over-represented; it also holds close analogues and randomly drawn compounds.
Property measured: INHIBITION (%)
Output spec: scalar in %, unitless text.

| Molecule | Property measured | Measurement units | Recorded measurement |
| --- | --- | --- | --- |
| Cc1ccnn1CC(=O)Nc1cc(-c2ccncc2)[nH]n1 | INHIBITION | % | 63.4 |
| CCCC(=O)N1CCN(Cc2cc(-c3ccncc3)nn2C)CC1 | INHIBITION | % | 8.72 |
| CC(C(=O)NCc1ccnc(N2CCCCCC2)c1)n1cccn1 (configuration not stated) | INHIBITION | % | -39.6 |
| Cc1cccc(S(=O)(=O)N2CSCC2C(=O)NCC2CC2)c1 (configuration not stated) | INHIBITION | % | -14.3 |
| CC(C)CCC(=O)NC(C#N)CC(C)C (configuration not stated) | INHIBITION | % | 9.91 |
| CC(C)CC(C#N)NC(=O)CCNC(=O)C(C)(C)C (configuration not stated) | INHIBITION | % | 55.5 |

The molecule `CN(Cc1cscn1)Cc1cc2c(cc1Br)OCO2` on Plasmodium berghei: INHIBITION was 31.9

The molecule `CN1CC2(CCN(C(=O)c3cc(-n4cccn4)ccc3Cl)CC2)OC1=O` on Plasmodium berghei: INHIBITION was 14.5

The molecule CN1CCCCC1(C)C(=O)N1CCC(c2ccccn2)CC1 (configuration not stated) on Plasmodium berghei: INHIBITION was 19.825
